molecular target: MCL-1/Bim interaction (recombinant human MCL-1 protein, residues 171-327; biotinylated human Bim peptide, residues 51-76) (Homo sapiens (Human)); assay: MCL-1/Bim Binding AlphaLISA Assay; conditions: 0.0625 nM 6xHis-Mcl-1 (171-327), 0.0625 nM biotinylated-Bim peptide
reported_endpoint: pIC50
Remember, pIC50 is on a log scale: it is -log10 of the molar concentration.

Recorded pIC50, per entry:
molecule	pIC50
CO[C@H]1CCC[C@H](C)C[S@@](=O)(NC(=O)NC2CC2)=NC(=O)c2ccc3c(c2)N(C[C@@H]2CC[C@H]21)C[C@@]1(CCCc2cc(Cl)ccc21)CO3 [Example 170]	10.22
CO[C@H]1/C=C/C[C@H](C)C[S@@](=O)(NC(=O)c2cn(C)c3nccnc23)=NC(=O)c2ccc3c(c2)N(C[C@@H]2CC[C@H]21)C[C@@]1(CCCc2cc(Cl)ccc21)CO3 [Example 450]	9.63
CO[C@H]1/C=C/[C@H](OC)[C@H](C)C[S@@](=O)(NC(=O)c2cc(CN3CCN4CCOC[C@@H]4C3)n(C)c2)=NC(=O)c2ccc3c(c2)N(C[C@@H]2CC[C@H]21)C[C@@]1(CCCc2cc(Cl)ccc21)CO3 [Example 399]	10.15
CO[C@H]1/C=C/CCC[S@@](=O)(NC(=O)C#CC(C)(C)C)=NC(=O)c2ccc3c(c2)N(C[C@@H]2CC[C@H]21)C[C@@]1(CCCc2cc(Cl)ccc21)CO3 [Example 36]	8.09
CO[C@H]1/C=C/C[C@H](C)C[S@@](=O)(NC(=O)c2cc(C)cs2)=NC(=O)c2ccc3c(c2)N(C[C@@H]2CC[C@H]21)C[C@@]1(CCCc2cc(Cl)ccc21)CO3 [Example 434]	9.35

Lookup: Entry C[C@@H]1[C@@H](C)C/C=C/[C@H](O)[C@@H]2CC[C@H]2CN2C[C@@]3(CCCc4cc(Cl)ccc43)COc3ccc(cc32)C(=O)N=[S@]1(=O)NC(=O)c1cc2n(c1)C[C@H](CN1CCOCC1)OC2 [Example 327] : reported pIC50 = ?
Found: 10.29

Lookup: Entry COC[C@@H]1CC[C@H]1NC(=O)N[S@@]1(=O)=NC(=O)c2ccc3c(c2)N(C[C@@H]2CC[C@H]2[C@@H](OC)/C=C/C[C@H](C)C1)C[C@@]1(CCCc2cc(Cl)ccc21)CO3 [Example 307] : reported pIC50 = ?
Found: 9.92

Lookup: Entry CO[C@H]1/C=C/C[C@H](C)C[S@@](=O)(NC(=O)N[C@@H]2C[C@H]2c2cnn(C)c2)=NC(=O)c2ccc3c(c2)N(C[C@@H]2CC[C@H]21)C[C@@]1(CCCc2cc(Cl)ccc21)CO3 (single isomer, unassigned) [Example 183] : reported pIC50 = ?
Found: 9.88

Lookup: Entry CO[C@H]1/C=C/C[C@H](C)C[S@@](=O)(NC(=O)N[C@H]2C[C@@H]2OC)=NC(=O)c2ccc3c(c2)N(C[C@@H]2CC[C@H]21)C[C@@]1(CCCc2cc(Cl)ccc21)CO3 (single isomer, unassigned) [Example 195] : reported pIC50 = ?
Found: 10.44

Lookup: Entry CO[C@H]1/C=C/CCC[S@@](=O)(NC(=O)CCc2nnc(C)s2)=NC(=O)c2ccc3c(c2)N(C[C@@H]2CC[C@H]21)C[C@@]1(CCCc2cc(Cl)ccc21)CO3 [Example 102] : reported pIC50 = ?
Found: 9.52

Lookup: Entry COc1cn(C)nc1C(=O)O[C@H]1/C=C/[C@H](OC)[C@@H]2CC[C@H]2CN2C[C@@]3(CCCc4cc(Cl)ccc43)COc3ccc(cc32)C(=O)N=[S@](=O)(NC(=O)c2cn(C)nc2OC)CC1 [Example 391] : reported pIC50 = ?
Found: 9.15

Lookup: Entry COCCOC1CCN(C(=O)N[S@@]2(=O)=NC(=O)c3ccc4c(c3)N(C[C@@H]3CC[C@H]3[C@@H](OC)/C=C/C[C@H](C)C2)C[C@@]2(CCCc3cc(Cl)ccc32)CO4)CC1 [Example 234] : reported pIC50 = ?
Found: 10.28

Lookup: Entry CO[C@H]1/C=C/CCC[S@@](=O)(NC(=O)NC2(C(F)(F)F)CC2)=NC(=O)c2ccc3c(c2)N(C[C@@H]2CC[C@H]21)C[C@@]1(CCCc2cc(Cl)ccc21)CO3 [Example 32] : reported pIC50 = ?
Found: 8.85

###

target: MCL-1/Bim interaction (recombinant human MCL-1 protein, residues 171-327; biotinylated human Bim peptide, residues 51-76) (Homo sapiens (Human), UniProt Q07820); test: MCL-1/Bim Binding AlphaLISA Assay; settings: 0.0625 nM 6xHis-Mcl-1 (171-327), 0.0625 nM biotinylated-Bim peptide
Sequence (Q07820 171-327): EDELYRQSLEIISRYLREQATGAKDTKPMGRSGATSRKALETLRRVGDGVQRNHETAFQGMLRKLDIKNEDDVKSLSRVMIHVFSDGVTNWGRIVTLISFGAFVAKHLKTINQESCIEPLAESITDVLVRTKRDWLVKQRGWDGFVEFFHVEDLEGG
Collected IC50 values appear next to each entry.
Reply with just the number (in nM).

Recorded IC50, per entry:
compound	reported_endpoint	u	test_result
COc1nn(C)cc1C(=O)N[S@@]1(=O)=NC(=O)c2ccc3c(c2)N(C[C@@H]2CC[C@H]2[C@@H](OC)/C=C/C[C@H](C)[C@H]1C)C[C@@]1(CCCc2cc(Cl)ccc21)CO3 [Example 188]	IC50	nM	0.069
CO[C@H]1/C=C/CCC[S@@](=O)(NC(=O)NC(C)C)=NC(=O)c2ccc3c(c2)N(C[C@@H]2CC[C@H]21)C[C@@]1(CCCc2cc(Cl)ccc21)CO3 [Example 19]	IC50	nM	1.1

Lookup: Entry CO[C@H]1/C=C/C[C@H](C)C[S@@](=O)(NC(=O)NC2COC2)=NC(=O)c2ccc3c(c2)N(C[C@@H]2CC[C@H]21)C[C@@]1(CCCc2cc(Cl)ccc21)CO3 [Example 428] : reported IC50 = ?
Found: 0.069

Lookup: Entry CO[C@H]1/C=C/C[C@H](C)C[S@@](=O)(NC(=O)N[C@H]2C[C@@](C)(O)C2)=NC(=O)c2ccc3c(c2)N(C[C@@H]2CC[C@H]21)C[C@@]1(CCCc2cc(Cl)ccc21)CO3 [Example 186] : reported IC50 = ?
Found: 0.066

Lookup: Entry COc1nn(C)cc1C(=O)N[S@@]1(=O)=NC(=O)c2ccc3c(c2)N(C[C@@H]2CC[C@H]2[C@@H](O)CCC[C@H](C)C1)C[C@@]1(CCCc2cc(Cl)ccc21)CO3 [Example 280] : reported IC50 = ?
Found: 0.044

###

biological target: MCL-1/Bim interaction (recombinant human MCL-1 protein, residues 171-327; biotinylated human Bim peptide, residues 51-76) (Homo sapiens (Human), UniProt Q07820); assay: MCL-1/Bim Binding AlphaLISA Assay; settings: 0.0625 nM 6xHis-Mcl-1 (171-327), 0.0625 nM biotinylated-Bim peptide
reported_endpoint: pIC50
Remember, pIC50 is on a log scale: it is -log10 of the molar concentration.

Lookup: Entry CO[C@H]1/C=C/C[C@H](C)C[S@@](=O)(NC(=O)c2cnn(C3CCC3)c2)=NC(=O)c2ccc3c(c2)N(C[C@@H]2CC[C@H]21)C[C@@]1(CCCc2cc(Cl)ccc21)CO3 [Example 176] : reported pIC50 = ?
Found: 9.86

Lookup: Entry COC[C@H]1Cn2cc(C(=O)N[S@@]3(=O)=NC(=O)c4ccc5c(c4)N(C[C@@H]4CC[C@H]4[C@@H](OC)/C=C/C[C@H](C)C3)C[C@@]3(CCCc4cc(Cl)ccc43)CO5)cc2CO1 [Example 214] : reported pIC50 = ?
Found: 9.73

Lookup: Entry CO[C@H]1/C=C/C[C@H](C)C[S@@](=O)(NC(=O)c2cc3n(c2)CCN(C(C)=O)C3)=NC(=O)c2ccc3c(c2)N(C[C@@H]2CC[C@H]21)C[C@@]1(CCCc2cc(Cl)ccc21)CO3 [Example 180] : reported pIC50 = ?
Found: 10.04

Lookup: Entry C[C@@H]1[C@@H](C)C/C=C/[C@H](O)[C@@H]2CC[C@H]2CN2C[C@@]3(CCCc4cc(Cl)ccc43)COc3ccc(cc32)C(=O)N=[S@]1(=O)NC(=O)c1cc2n(c1)CC1(COC1)OC2 [Example 239] : reported pIC50 = ?
Found: 10.38

Lookup: Entry CO[C@H]1/C=C/CCC[S@@](=O)(NC(=O)Cc2ncccn2)=NC(=O)c2ccc3c(c2)N(C[C@@H]2CC[C@H]21)C[C@@]1(CCCc2cc(Cl)ccc21)CO3 [Example 30] : reported pIC50 = ?
Found: 9.22

###

biological target: MCL-1/Bim interaction (recombinant human MCL-1 protein, residues 171-327; biotinylated human Bim peptide, residues 51-76) (Homo sapiens (Human), UniProt Q07820); assay: MCL-1/Bim Binding AlphaLISA Assay; details: 0.0625 nM 6xHis-Mcl-1 (171-327), 0.0625 nM biotinylated-Bim peptide
reported_endpoint: pIC50
Remember, pIC50 is on a log scale: it is -log10 of the molar concentration.

Recorded pIC50, per entry:
molecule	pIC50
COc1nn(C)cc1C(=O)N[S@@]1(=O)=NC(=O)c2ccc3c(c2)N(C[C@@H]2CC[C@H]2[C@@H](OC)/C=C/[C@H](S(=O)(=O)c2ccc(C)cc2)[C@H](C)C1)C[C@@]1(CCCc2cc(Cl)ccc21)CO3 [Example 377]	9.97
CO[C@@H]1CCN(C(=O)N[S@@]2(=O)=NC(=O)c3ccc4c(c3)N(C[C@@H]3CC[C@H]3[C@@H](OC)/C=C/C[C@H](C)C2)C[C@@]2(CCCc3cc(Cl)ccc32)CO4)C1 [Example 350]	10.26

Lookup: Entry CO[C@H]1/C=C/C[C@H](C)C[S@@](=O)(NC(=O)N[C@H]2C[C@@H]2C(F)F)=NC(=O)c2ccc3c(c2)N(C[C@@H]2CC[C@H]21)C[C@@]1(CCCc2cc(Cl)ccc21)CO3 [Example 311] : reported pIC50 = ?
Found: 10.62
